- experimental_details: in vitro
- reported_conditions: human, hela cells, % viability
endpoint_label: viability at 28.5 h, 10 µM (%)
Quick reminder: number only, in %, skip the unit.

Q: Look at this compound and give its reported viability at 28.5 h, 10 µM. CCOC(=O)N1CCN(c2cc3[nH]c(S)nc3cc2F)CC1
Result: 89.9

Q: May I ask what viability at 28.5 h, 10 µM has been recorded for CN(Cc1ccccc1)c1nc2ccccn2c(=O)c1/C=C1/SC(=S)N(CCc2ccccc2)C1=O ?
Result: 112

Q: For the compound CCCCNC(=O)CSc1ncccc1C(=O)NCc1cccnc1 , what viability at 28.5 h, 10 µM is on record?
Result: 91

Q: Quick one: viability at 28.5 h, 10 µM for COc1cc(CNc2cccc(-c3ccsc3)n2)cc(OC)c1 ?
Result: 97.8

Q: Quick one: viability at 28.5 h, 10 µM for Cc1ccc(Nc2cc(-c3cccc(N)c3)ncn2)cc1NS(C)(=O)=O ?
Result: 99.1
